Recorded endpoint: melting point

Some molecules with known melting point results, for comparison:
{"Molecule": "CCOC(=O)CS(=O)(=O)CCCC=C1SC=CS1", "melting point": "79.5 to 81 °C"}
{"Molecule": "FC(F)(F)c1cc(Cl)c(-c2nc(Br)c(Br)[nH]2)c(Cl)c1", "melting point": "328 to 329 °C"}

Next molecule, please.
According to the records, this molecule O=C1NC(=O)C(Cc2ccc3c(c2)CN(c2ccccn2)CCO3)S1 (stereo not drawn) displays melting point of 180 to 181 °C

----------
# melting point per entry

Some molecules with known melting point results, for comparison:
{"Molecule": "Cc1sc(C(=O)O)cc1CC#N", "melting point": "196 to 198 °C"}
{"Molecule": "COC(=O)CCc1cc2cc(Cl)ccc2n1S(=O)(=O)c1cccc(OC)c1", "melting point": "106 to 109 °C"}
{"Molecule": "O=C1NC(=O)C(S(=O)c2ccc3ccccc3c2)S1 (centres undefined)", "melting point": "157 to 158 °C"}

Next molecule, please.
According to the records, this molecule "CC(C)SCCCCCCCCCCCC(=O)Nc1ccccc1OCCCC(=O)O" displays melting point of 82 to 84 °C
